assay: Volume of distribution in Sprague-Dawley rat at 1 mg/kg, iv; assay type: ADME, organism-based; design: dose 1 mg/kg, route intravenous; conditions: in vivo
resultType: Vd (L/kg)
Could you give me the number in L/kg? Just the number is fine.

Summary for this compound, "Cc1ccn(CCc2n[nH]c3ncccc23)c(=O)c1Oc1cc(Cl)cc(C#N)c1" : Vd is 0.6

* * *

experiment: Plasma clearance in Sprague-Dawley rat at 10 mg/kg, po and 2 mg/kg, iv; assay type: ADME, organism-based
I'd appreciate it if you could supply clearance values for the items below.
Entry rule: numbers only, all in mL/min/kg.

Looking up "N#Cc1cc(Cl)cc(Oc2c(Cl)ccn(Cc3n[nH]c4nc(N)ccc34)c2=O)c1" , I found its clearance recorded as 12

Note to self: clearance recorded for "N#Cc1cc(Cl)cc(Oc2c(Cl)c(Cl)cn(Cc3n[nH]c4ncccc34)c2=O)c1" was 27

According to the records, this compound "N#Cc1cc(Cl)cc(Oc2c(Cl)ccn(Cc3n[nH]c4ncccc34)c2=O)c1" displays clearance of 12

Field clearance (entry "Cc1ccn(Cc2n[nH]c3ncccc23)c(=O)c1Oc1cc(Cl)cc(C#N)c1" ) reads 11
